# apparent KD of MS2 coat protein listing for each entry below
system: MS2 coat protein; assay: apparent KD of MS2 coat protein; designed switch direction (-1 OFF switch, 1 ON switch): 1; higher = weaker reporter binding; conditions: Eterna round: R98; input ligand: FMN 200 uM
Experimental readout: apparent KD of MS2 coat protein

- Sequence: "AGGUAGGUCACAGGAUAUCCCGUGAGCUACAUGAGGAUCACCCAUGUAUCACGACGAAAGAAGAAGGAGAAGGGUGACCCUGAU [Atqula]"
  Experimental readout: "apparent KD of MS2 coat protein"
  Value observed: "28.3 nM"
- Sequence: "CACGUCCUCACAGGAUAUGCUGGACUUUGUCCAGCAGAAGGGUGACAUGAGGAUCACCCAUGUUAAAGGACGUGUAUAUUUAAU [Denovo 24]"
  Experimental readout: "apparent KD of MS2 coat protein"
  Value observed: "126 nM"
- Sequence: "GUCCCAGUCACAGGAUAUGGCUCCGUAACGGAACCAGAAGGGUGAUAUUCAGAAAACACACAUGAGGAUCACCCAUGUAAUAAA [Tiorbiti]"
  Experimental readout: "apparent KD of MS2 coat protein"
  Value observed: "164 nM"

* * *

tested on: MS2 coat protein; assay: apparent KD of MS2 coat protein; designed switch direction (-1 OFF switch, 1 ON switch): -1; higher = weaker reporter binding; conditions: input ligand: FMN 200 uM

- Sequence: "AUUGUGUGAGGAUAUUAAUAGUAAAUGAAUAGAAUUAUGAUUGAGAAGGCACAUGAGGAUCACCCAUGUUCCUU [JR_Ex4_Sub081] (Eterna round: R97, puzzle: Exclusion 4)"
  apparent KD of MS2 coat protein, nM: 17.8
- Sequence: "AAAAGGUGAGGAUAUUCAAGGAAAGACAUGAGGAUCACCCAUGUAAGAAAGGAAAAGGGAGGAGAAGGUGUGAAAA [salish99_ex5_r4_136] (Eterna round: R97, puzzle: Exclusion 5)"
  apparent KD of MS2 coat protein, nM: 62.1
- Sequence: "GAGUGAAGUGCAGGAUAUCUAGAAGGAAGAAGGAGGAAACAUGAGGAUCACCCAUGUAAUCCAUAAGAGAAGGGCGGAGAGGAG [An ugly monster] (Eterna round: R96, puzzle: Exclusion NG 2)"
  apparent KD of MS2 coat protein, nM: 16.3
- Sequence: "UAGCAGCGAGGAUAUACAGACGGGUCCAGUACGUGUCUUGGACUUGAGGAUCACCCAAGUAGAAGGCGCCACAG [salish99_ex2_r4_604] (Eterna round: R97, puzzle: Exclusion 2)"
  apparent KD of MS2 coat protein, nM: 41.3
- Sequence: "AGCUGUGGCCGAGGAUAUGACAUGAGGAUCACCCAUGUACGUAAUUAGGCCUGGUAACAGGCUCGUCAGAAGGCGGUCUCAGCA [Eli eng2 - 008] (Eterna round: R96, puzzle: Exclusion NG 2)"
  apparent KD of MS2 coat protein, nM: 12.2

* * *

tested on: K4 kissing-loop RNA reporter; experiment: apparent KD of K4 kissing-loop reporter; higher = weaker reporter binding; conditions: Eterna round: R107; input ligand: FMN 200 uM;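 also: bound reporter read as fluorescence of individual clusters on recovered sequencing chips by microscopy, with normalized cluster intensities fitted with a binding model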
Please mark true if the recorded apparent KD of K4 kissing-loop reporter is equal to or greater than 200 nM, and false if it falls below.

- Sequence: "CGGAUCGCAUCAGGAUAUCUCUCAUCAGUGAUGUUGGUGAAGCGUACGCGAAAGCGUACGCAGAUGAGAGAAGGGAUGCGAUCCG"
  Study system: "K4 kissing-loop RNA reporter"
  Assigned label: "true"
- Sequence: "UAAAUCACACGAGAUACCAGCCAAACCGAACUUGAGCACUAUAGUGAUGUUAUAUUGCGAGGCCCUUGGCAGCUCAAUAGAACAA [theeternabot_sameState_KL_Theo_B_11]"
  Study system: "K4 kissing-loop RNA reporter"
  Assigned label: "true"
- Sequence: "UGUACCGAGUGAGGAUAUGUCGUCGAAAGACGAAAUGGAGUGAUGUUCCUUAAACUGCGAAAGCAGACAGAAGGUACUUGGUACU [FmnBS 29 G11+U75]"
  Study system: "K4 kissing-loop RNA reporter"
  Assigned label: "false"
- Sequence: "AGUACAAUGGCGGCCGCCACUCAAUGGCAGAUCAAAGAUCUGCAUCACUCAGUGAUGUUGAGUGAGAGGACCGGGCCUUUGUACA [Omei KL Tryp B SS B v7]"
  Study system: "K4 kissing-loop RNA reporter"
  Assigned label: "true"
- Sequence: "AAAUUUAUAUUAGAUACCAGCAUUUUGAAUGUUUAUUAUGACAAGAGUGAUGUUCUUGUAUGCCCUUGGCAGCUGGUAUGGGUUU [KL-XTheo-B24]"
  Study system: "K4 kissing-loop RNA reporter"
  Assigned label: "false"
- Sequence: "GUAUGUGGAAACACGUACUUAUAUCCUCGACAGGAUAUGCGGAAACGCAGAAGGGUCGCCAACGAGUUUAUCCAGUGAUGUUGGA [Ex FMN A 15]"
  Study system: "K4 kissing-loop RNA reporter"
  Assigned label: "true"
